Field: Log10GI50. Provide a value for each of the compounds that follow.
System: OVCAR-5
Format: cell-based, human
Description: (aR)-6, (aS)-6, (aS)-iso -6, and (aR)-iso -6 were submitted to the 60 Cell Screen panel and evaluated at 5 doses (100 μM, 10 μM, 1 μM, 0.1 μM, and 0.01 μM). […] The complete report from this submission is available at the publisher’s Web site as a separate Supporting Information file. For COMPARE analysis, TGI levels of response for (aR)-DM-MTC (6) and (aS)-iso-DM-MTC were compared to those of several established tubulin inhibitors previously tested in the NCI-60 screen.
Quick reminder: number only, in Molar, skip the unit.

Request: Query the reported Log10GI50 for OVCAR-5; item: COc1cc(C)c(-c2ccc(OC)c(=O)cc2C)c(OC)c1OC (single isomer, unassigned) [(aR)-6]
Result: -5.36

Request: Query the reported Log10GI50 for OVCAR-5; item: COc1cc(C)c(-c2ccc(=O)c(OC)cc2C)c(OC)c1OC (single isomer, unassigned) [(aS)-iso-6]
Result: -4.38

* * *

Tested on: PC-3
Assay type: cell-based, human
Field: Log10GI50. Provide a value for each of the compounds that follow.
Quick reminder: number only, in Molar, skip the unit.

Request: Query the reported Log10GI50 for PC-3; item: COc1cc(C)c(-c2ccc(OC)c(=O)cc2C)c(OC)c1OC (single isomer, unassigned) [(aR)-6]
Result: -5.64

Request: Query the reported Log10GI50 for PC-3; item: COc1cc(C)c(-c2ccc(=O)c(OC)cc2C)c(OC)c1OC (single isomer, unassigned) [(aS)-iso-6]
Result: -4.50

* * *

Test system: TK-10
Assay type: cell-based, human
Field: Log10GI50. Provide a value for each of the compounds that follow.

Request: I am curious: what Log10GI50 value has been reported for COc1cc(C)c(-c2ccc(OC)c(=O)cc2C)c(OC)c1OC (single isomer, unassigned) [(aR)-6] ?
Result: -4.18 Molar

Request: I am curious: what Log10GI50 value has been reported for COc1cc(C)c(-c2ccc(=O)c(OC)cc2C)c(OC)c1OC (single isomer, unassigned) [(aR)-iso-6] ?
Result: > -4.00 Molar

Request: I am curious: what Log10GI50 value has been reported for COc1cc(C)c(-c2ccc(OC)c(=O)cc2C)c(OC)c1OC (single isomer, unassigned) [(aS)-6] ?
Result: > -4.00 Molar

Request: I am curious: what Log10GI50 value has been reported for COc1cc(C)c(-c2ccc(=O)c(OC)cc2C)c(OC)c1OC (single isomer, unassigned) [(aS)-iso-6] ?
Result: > -4.00 Molar

* * *

Test system: SR
Format: cell-based, human
property: Log10LC50

Request: Query the reported Log10LC50 for SR; item: COc1cc(C)c(-c2ccc(=O)c(OC)cc2C)c(OC)c1OC (single isomer, unassigned) [(aS)-iso-6]
Result: > -4.00 Molar

Request: Query the reported Log10LC50 for SR; item: COc1cc(C)c(-c2ccc(OC)c(=O)cc2C)c(OC)c1OC (single isomer, unassigned) [(aR)-6]
Result: > -4.00 Molar

Request: Query the reported Log10LC50 for SR; item: COc1cc(C)c(-c2ccc(=O)c(OC)cc2C)c(OC)c1OC (single isomer, unassigned) [(aR)-iso-6]
Result: > -4.00 Molar

Request: Query the reported Log10LC50 for SR; item: COc1cc(C)c(-c2ccc(OC)c(=O)cc2C)c(OC)c1OC (single isomer, unassigned) [(aS)-6]
Result: > -4.00 Molar

* * *

Test system: bovine brain tubulin
experiment-description: Tubulin polymerization inhibition
Type: biochemical
measurement-context: 3.3 μM compound, 10 μM tubulin
property: Polymerization Inhibition (%) 3.3 μM
Quick reminder: number only, in %, skip the unit.

Request: I am curious: what Polymerization Inhibition (%) 3.3 μM value has been reported for COc1cc(C)c(-c2ccc(OC)c(=O)cc2C)c(OC)c1OC (single isomer, unassigned) [(aR)-6] ?
Result: 0

Request: I am curious: what Polymerization Inhibition (%) 3.3 μM value has been reported for COc1cc(C)c(-c2ccc(=O)c(OC)cc2C)c(OC)c1OC (single isomer, unassigned) [(aS)-iso-6] ?
Result: 0

Request: I am curious: what Polymerization Inhibition (%) 3.3 μM value has been reported for COc1cc(C)c(-c2ccc(=O)c(OC)cc2C)c(OC)c1OC (single isomer, unassigned) [(aR)-iso-6] ?
Result: 0

Request: I am curious: what Polymerization Inhibition (%) 3.3 μM value has been reported for "COc1ccc(-c2ccc(OC)c(=O)cc2C)c(OC)c1OC" ?
Result: 0

Request: I am curious: what Polymerization Inhibition (%) 3.3 μM value has been reported for COc1ccc(-c2ccc(OC)c(=O)cc2)c(OC)c1OC [compound 3, reference compound] ?
Result: 100

Request: I am curious: what Polymerization Inhibition (%) 3.3 μM value has been reported for COc1cc(C)c(-c2ccc(OC)c(=O)cc2C)c(OC)c1OC (single isomer, unassigned) [(aS)-6] ?
Result: 0

Request: I am curious: what Polymerization Inhibition (%) 3.3 μM value has been reported for "COc1cc(C)c(-c2ccc(OC)c(=O)cc2)c(OC)c1OC" ?
Result: 0

Request: I am curious: what Polymerization Inhibition (%) 3.3 μM value has been reported for "COc1ccc(-c2ccc(=O)c(OC)cc2C)c(OC)c1OC" ?
Result: 0

* * *

Test system: HCC-2998
Format: cell-based, human
property: Log10GI50 (Molar)
Quick reminder: number only, in Molar, skip the unit.

Request: I am curious: what Log10GI50 value has been reported for COc1cc(C)c(-c2ccc(=O)c(OC)cc2C)c(OC)c1OC (single isomer, unassigned) [(aS)-iso-6] ?
Result: -4.48

Request: I am curious: what Log10GI50 value has been reported for COc1cc(C)c(-c2ccc(OC)c(=O)cc2C)c(OC)c1OC (single isomer, unassigned) [(aR)-6] ?
Result: -5.55

* * *

Test system: UACC-257
Format: cell-based, human
property: Log10GI50

Request: I am curious: what Log10GI50 value has been reported for COc1cc(C)c(-c2ccc(OC)c(=O)cc2C)c(OC)c1OC (single isomer, unassigned) [(aS)-6] ?
Result: > -4.00 Molar

Request: I am curious: what Log10GI50 value has been reported for COc1cc(C)c(-c2ccc(=O)c(OC)cc2C)c(OC)c1OC (single isomer, unassigned) [(aR)-iso-6] ?
Result: > -4.00 Molar

Request: I am curious: what Log10GI50 value has been reported for COc1cc(C)c(-c2ccc(=O)c(OC)cc2C)c(OC)c1OC (single isomer, unassigned) [(aS)-iso-6] ?
Result: -4.15 Molar

Request: I am curious: what Log10GI50 value has been reported for COc1cc(C)c(-c2ccc(OC)c(=O)cc2C)c(OC)c1OC (single isomer, unassigned) [(aR)-6] ?
Result: -5.11 Molar

* * *

Test system: MDA-MB-435
Type: cell-based, human
Field: Log10GI50. Provide a value for each of the compounds that follow.
Quick reminder: number only, in Molar, skip the unit.

Request: I am curious: what Log10GI50 value has been reported for COc1cc(C)c(-c2ccc(=O)c(OC)cc2C)c(OC)c1OC (single isomer, unassigned) [(aS)-iso-6] ?
Result: -5.46

Request: I am curious: what Log10GI50 value has been reported for COc1cc(C)c(-c2ccc(OC)c(=O)cc2C)c(OC)c1OC (single isomer, unassigned) [(aS)-6] ?
Result: -4.14

Request: I am curious: what Log10GI50 value has been reported for COc1cc(C)c(-c2ccc(OC)c(=O)cc2C)c(OC)c1OC (single isomer, unassigned) [(aR)-6] ?
Result: -6.57

* * *

Test system: A549/ATCC
Format: cell-based, human
property: Log10GI50 (Molar)
Quick reminder: number only, in Molar, skip the unit.

Request: I am curious: what Log10GI50 value has been reported for COc1cc(C)c(-c2ccc(=O)c(OC)cc2C)c(OC)c1OC (single isomer, unassigned) [(aS)-iso-6] ?
Result: -4.45

Request: I am curious: what Log10GI50 value has been reported for COc1cc(C)c(-c2ccc(OC)c(=O)cc2C)c(OC)c1OC (single isomer, unassigned) [(aR)-6] ?
Result: -5.42

* * *

Field: Log10GI50. Provide a value for each of the molecules that follow.
Test system: UO-31
Format: cell-based, human
Quick reminder: number only, in Molar, skip the unit.

Request: I am curious: what Log10GI50 value has been reported for COc1cc(C)c(-c2ccc(OC)c(=O)cc2C)c(OC)c1OC (single isomer, unassigned) [(aR)-6] ?
Result: -5.16

Request: I am curious: what Log10GI50 value has been reported for COc1cc(C)c(-c2ccc(=O)c(OC)cc2C)c(OC)c1OC (single isomer, unassigned) [(aS)-iso-6] ?
Result: -4.34
